B1: EPB41L3 (parent)
chain: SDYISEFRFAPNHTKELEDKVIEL

# Variants of: B1
# experiment-description: protein stability index of a GFP-peptide fusion (GPS, HEK-293T) (PSI 1-6); higher = more stable;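 also: lentivirally expressed fusions sorted by FACS into six bins by GFP to DsRed ratio, PSI derived from sequencing read proportions per bin multiplied by bin number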
# stated-conditions: c terminus: a fixed tail appended
endpoint: protein stability index

Guide cases for protein stability index, answers given:
{"mutation-key": "I4K", "protein stability index": 3.23}
{"mutation-key": "E16H", "protein stability index": 2.65}
{"mutation-key": "H13I", "protein stability index": 2.28}
{"mutation-key": "F9C", "protein stability index": 3.93}
{"mutation-key": "S1Q", "protein stability index": 2.45}

Look up protein stability index for the entries below, preserving their order.
1. L24Y
2. K15G
3. I4T
4. F7Q
5. E18K

2.08
2.1
2.65
4.79
2.08

Look up protein stability index for the entries below, preserving their order.
1. T14R
2. P11W
3. N12A
4. P11Q

2.08
2.33
2.2
2.57

Look up protein stability index for the entries below, preserving their order.
1. T14L
2. P11G
3. K20L
4. H13N
5. A10G
6. S5I
7. I4S
8. E6S

1. 2.23
2. 2.44
3. 2.28
4. 2.36
5. 3.92
6. 2.02
7. 3.49
8. 2

Look up protein stability index for the entries below, preserving their order.
1. S1N
2. T14H
3. S5Q
4. E6F
5. D19L
6. D2R
7. E16S
8. E18G

1.94
1.68
2.7
1.52
2.69
2.02
2.42
2.53

Look up protein stability index for the entries below, preserving their order.
1. E18M
2. S1T
3. K15Y
4. E18H
5. R8W
6. L24E

1.8
2.01
1.63
2.77
3.17
2.65

Look up protein stability index for the entries below, preserving their order.
1. S1R
2. F7L
3. S1V
4. S5D
5. K20F
6. K15V
7. L24M

1.85
3.6
1.74
3.8
2.31
2.04
2.16

Look up protein stability index for the entries below, preserving their order.
1. S1G
2. N12E
3. E6N
4. F7P
5. L24W
6. E16T
7. R8H

1: 2.12; 2: 3.54; 3: 1.83; 4: 4.75; 5: 2.44; 6: 1.54; 7: 4.48

Look up protein stability index for the entries below, preserving their order.
1. V21D
2. A10V

1. 2.96
2. 1.84
